- STUDY_SYSTEM: Sigma intracellular receptor 2 (Rattus norvegicus) (UniProt Q5U3Y7)
- Sequence (Q5U3Y7 whole entry): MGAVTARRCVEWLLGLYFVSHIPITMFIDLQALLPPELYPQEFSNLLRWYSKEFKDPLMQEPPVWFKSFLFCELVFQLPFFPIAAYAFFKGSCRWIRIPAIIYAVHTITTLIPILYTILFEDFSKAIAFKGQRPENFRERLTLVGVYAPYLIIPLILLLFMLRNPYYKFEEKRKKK
- METHOD_DESCRIPTION: Displacement of [3H]-di-o-tolylguanidine from Sigma 2 receptor in rat liver membrane at 1 uM incubated for 120 mins by solid scintillation counting method
- Type: cell membranes
- MEASUREMENT_SETUP: Cell membrane
ASSAY_METRIC: inhibition (%)

Look over these answered cases.
1) NC1CC1(F)c1cccc(F)c1 (stereo in doubt; 27b) ... 16
2) NC1CC1(F)c1cccc([N+](=O)[O-])c1 (trans isomer) ... 18
3) NC1CC1(F)c1cccc(F)c1 (trans isomer) ... 31

A. NCCC1CC1(F)c1ccccc1 (configuration not stated)
B. NC1CC1(F)c1cccc([N+](=O)[O-])c1 (cis isomer)
Which entry has a larger number for inhibition, A or B ? Answer by quoting the chosen item's label.
B

a. NC1CC1(F)c1ccc([N+](=O)[O-])cc1 (trans isomer)
b. COc1ccc(C2(F)CC2N)cc1 (stereo in doubt; 19b)
c. NC1CC1(F)c1ccccc1 (cis isomer)
Sequence the entries by inhibition, beginning with the highest number. Please write the labels in the order that was asked for.
b, c, a

P. CNC1CC1(F)c1ccccc1 (stereo in doubt; 11a)
Q. COc1ccc(C2(F)CC2N)cc1 (trans isomer)
Parameter metric = inhibition. Return the lower-valued option from P and Q . Your answer should be the label attached to the chosen record.
P
(P: 0%, Q: 32%)

---

- METHOD_DESCRIPTION: Displacement of [3H]-di-o-tolylguanidine from Sigma 2 receptor in guinea pig brain membrane incubated for 120 mins by scintillation counting method
- Assay type: cell membranes, Cavia porcellus, Cell membrane
ASSAY_METRIC: Ki (nM)

I. COC(=O)C1(c2ccccc2)CC1CNC12CC3CC(CC(C3)C1)C2 (racemic; trans)
II. COC(=O)C1(c2ccccc2)CC1CNC12CC3CC(CC(C3)C1)C2 (racemic; cis)
Looking at I and II , which one comes out lower in Ki terms? // output: label of the selected item
II
(II: 23 nM, I: 135 nM)

---

- STUDY_SYSTEM: Sigma non-opioid intracellular receptor 1 (Cavia porcellus)
- METHOD_DESCRIPTION: Displacement of [3H]-(+)-pentazocine from sigma1 receptor in guinea pig brain membrane incubated for 120 mins by solid scintillation counting method
- Assay type: cell membranes, Cell membrane
ASSAY_METRIC: Ki (nM)

Here are 5 molecules together with their reported answers.
1. NC1(c2ccccc2)CC1(F)c1ccccc1 (stereo in doubt; 24b) ... 527
2. NC1CC1(F)c1ccc(C(F)(F)F)cc1 (trans isomer) ... 1900
3. NC1CC1(F)c1ccc(Cl)cc1 (cis isomer) ... 1500
4. NC1(c2ccccc2)CC1(F)c1ccccc1 (trans isomer) ... 399
5. NCC1CC1(F)c1ccccc1 (stereo unspecified) ... 429

A. COc1ccc(C2(F)CC2N)cc1 (trans isomer)
B. NC1CC1(F)c1ccc(S(F)(F)(F)(F)F)cc1 (trans isomer)
C. COc1ccc(C2(F)CC2N)cc1 (stereo in doubt; 19b)
Order each entry by recorded Ki, climbing from the minimum. When ranking, write the labels in the order the request describes.
A, C, B

---

- STUDY_SYSTEM: Sigma non-opioid intracellular receptor 1 (Cavia porcellus)
- METHOD_DESCRIPTION: Displacement of [3H]-pentazocine from sigma1 receptor in guinea pig brain membrane incubated for 150 mins by scintillation counting method
- Assay type: cell membranes, Cell membrane
ASSAY_METRIC: Ki (nM)

A. COC(=O)C1(c2ccccc2)CC1CNC12CC3CC(CC(C3)C1)C2 (racemic; cis)
B. COC(=O)C1(c2ccccc2)CC1CNC12CC3CC(CC(C3)C1)C2 (racemic; trans)
Between A and B , whose measured Ki reads higher? Kindly state the label of the option you pick.
B

---

- STUDY_SYSTEM: Sigma non-opioid intracellular receptor 1 (Cavia porcellus) (UniProt Q60492)
- Sequence (Q60492 whole entry): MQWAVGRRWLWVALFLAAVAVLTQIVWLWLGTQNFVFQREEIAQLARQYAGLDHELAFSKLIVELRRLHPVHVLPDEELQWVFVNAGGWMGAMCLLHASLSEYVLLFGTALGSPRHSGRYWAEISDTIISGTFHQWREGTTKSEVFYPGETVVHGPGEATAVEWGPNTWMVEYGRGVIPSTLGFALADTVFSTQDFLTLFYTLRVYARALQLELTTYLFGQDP
- METHOD_DESCRIPTION: Displacement of [3H]-(+)-pentazocine from sigma1 receptor in guinea pig brain membrane at 1 uM incubated for 120 mins by solid scintillation counting method
- Type: cell membranes
- MEASUREMENT_SETUP: Cell membrane
ASSAY_METRIC: inhibition (%)

Example entries begin here.
1) CNC1CC1(F)c1ccccc1 (racemic) ... 0
2) NC1CC1(F)c1ccc([N+](=O)[O-])cc1 (trans isomer) ... 13
3) COc1ccc(C2(F)CC2N)cc1OC (stereo not drawn) ... 24
4) NCCC1CC1(F)c1ccccc1 (stereo not drawn) ... 24
5) NC1CC1(F)c1cccc([N+](=O)[O-])c1 (cis isomer) ... 13

P. COc1cccc(C2(F)CC2N)c1 (cis isomer)
Q. NC1CC1(F)c1ccccc1 (cis isomer)
R. CNC1CC1(F)c1ccccc1 (stereo in doubt; 11a)
S. NC1CC1(F)c1ccc([N+](=O)[O-])cc1 (stereo in doubt; 25b)
Rank the 4 molecules: largest inhibition first, smallest last. Use the labels to give the requested order.
Q, P, S, R
(Q: 30%, P: 14%, S: 1%, R: 0%)

A. Fc1cccc(C2(F)CC2NCc2ccccc2)c1 (trans isomer)
B. NC1CC1(F)c1cccc([N+](=O)[O-])c1 (trans isomer)
C. Cc1ccc(C2(F)CC2N)cc1 (cis isomer)
Order the 3 molecules from highest to lowest inhibition. Submit the labels in the order that the ranking request calls for.
C, B, A
(C: 25%, B: 16%, A: 0%)

a. FC1(c2ccccc2)CC1NCc1ccccc1 (stereo not drawn)
b. NC1CC1(F)c1ccc(S(F)(F)(F)(F)F)cc1 (cis isomer)
c. COc1cccc(C2(F)CC2N)c1 (trans isomer)
# rank_down: sort by inhibition, max first Rank them, then answer with their labels in that order.
c, b, a

---

- STUDY_SYSTEM: Sigma intracellular receptor 2 (Rattus norvegicus)
- METHOD_DESCRIPTION: Displacement of [3H]-di-o-tolylguanidine from Sigma 2 receptor in rat liver membrane at 1 uM incubated for 120 mins by solid scintillation counting method
- Assay type: cell membranes
- MEASUREMENT_SETUP: Cell membrane
ASSAY_METRIC: inhibition (%)

1) NC1CC1(F)c1ccc([N+](=O)[O-])cc1 (stereo in doubt; 25b) ... 53

a. CNC1CC1(F)c1ccccc1 (racemic)
b. FC1(c2ccccc2)CC1NCc1ccccc1 (stereo not drawn)
Between these two entries, a and b , state which has the higher inhibition. Give the label of your selection.
a
(a: 19%, b: 0%)

---

- STUDY_SYSTEM: Sigma non-opioid intracellular receptor 1 (Cavia porcellus, UniProt Q60492)
- Sequence (Q60492 whole entry): as above
- METHOD_DESCRIPTION: Displacement of [3H]-(+)-pentazocine from sigma1 receptor in guinea pig brain membrane incubated for 120 mins by solid scintillation counting method
- Assay type: cell membranes, Cell membrane
The reader will find reported Ki values listed item by item below.
Report only the number, with the unit nM understood.

Returns the measured Ki for the input molecule. Input: NC1CC1(F)c1ccc(C(F)(F)F)cc1 (stereo in doubt; 20b)
13

Any idea what its Ki is? The molecule is N[C@@H]1C[C@H]1c1ccccc1.N[C@H]1C[C@@H]1c1ccccc1 (racemic)
1800

GET /values?readout=Ki&item= NC1CC1(F)c1ccc(F)cc1 (stereo in doubt; 17b)
428

---

- STUDY_SYSTEM: Sigma non-opioid intracellular receptor 1 (Cavia porcellus)
- METHOD_DESCRIPTION: Displacement of [3H]-(+)-pentazocine from sigma1 receptor in guinea pig brain membrane at 1 uM incubated for 120 mins by solid scintillation counting method
- Type: cell membranes
- MEASUREMENT_SETUP: Cell membrane
ASSAY_METRIC: inhibition (%)

1) NC1CC1(F)c1ccc(F)cc1 (trans isomer) ... 27
2) NC1CC1(F)c1cccc(F)c1 (stereo in doubt; 27b) ... 0
3) NC1CC1(F)c1cccc(F)c1 (trans isomer) ... 0

Every entry's value here was drawn from ChEMBL document CHEMBL4673251.
